B1: EHMT1 (parent)
chain: SARQGELQKVLLMLVDGIDPNFKM

Variants of: B1
Test: protein stability index of a GFP-peptide fusion (GPS, HEK-293T) (PSI 1-6); higher = more stable;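 further: lentivirally expressed fusions sorted by FACS into six bins by GFP to DsRed ratio, PSI derived from sequencing read proportions per bin multiplied by bin number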
Settings: c terminus: a fixed tail appended
Classify as follows. Reported protein stability index greater than or equal to 2: true (1). Reported protein stability index below: false (0).

// query Determine whether this variant has protein stability index no lower than 2: SARQGELQKMLLMLVDGIDPNFKM [V10M]
// result true (1)

// query Determine whether this variant has protein stability index no lower than 2: SARQGEDQKVLLMLVDGIDPNFKM [L7D]
// result true (1)

// query Determine whether this variant has protein stability index no lower than 2: SARQGELQKVLLMLVDGIDPNFYM [K23Y]
// result false (0)

// query Determine whether this variant has protein stability index no lower than 2: SARQGELQKVLLMLVDGIDPNTKM [F22T]
// result true (1)

// query Determine whether this variant has protein stability index no lower than 2: SARQGELQKVLCMLVDGIDPNFKM [L12C]
// result true (1)

// query Determine whether this variant has protein stability index no lower than 2: SAWQGELQKVLLMLVDGIDPNFKM [R3W]
// result true (1)

// query Determine whether this variant has protein stability index no lower than 2: SARQGELQKVMLMLVDGIDPNFKM [L11M]
// result false (0)

// query Determine whether this variant has protein stability index no lower than 2: SAQQGELQKVLLMLVDGIDPNFKM [R3Q]
// result true (1)

// query Determine whether this variant has protein stability index no lower than 2: SAPQGELQKVLLMLVDGIDPNFKM [R3P]
// result true (1)

// query Determine whether this variant has protein stability index no lower than 2: SARQGELQKVLLMLVDGKDPNFKM [I18K]
// result false (0)

// query Determine whether this variant has protein stability index no lower than 2: SARQGELQKQLLMLVDGIDPNFKM [V10Q]
// result false (0)

// query Determine whether this variant has protein stability index no lower than 2: STRQGELQKVLLMLVDGIDPNFKM [A2T]
// result true (1)

// query Determine whether this variant has protein stability index no lower than 2: SARQGELQKGLLMLVDGIDPNFKM [V10G]
// result false (0)

// query Determine whether this variant has protein stability index no lower than 2: SARQGELSKVLLMLVDGIDPNFKM [Q8S]
// result false (0)

// query Determine whether this variant has protein stability index no lower than 2: SARQGELQKVLLMLVDGIDPNFKT [M24T]
// result false (0)

// query Determine whether this variant has protein stability index no lower than 2: SARQGELQKVLLMLVDGIDPNKKM [F22K]
// result false (0)

// query Determine whether this variant has protein stability index no lower than 2: SARQGELQKHLLMLVDGIDPNFKM [V10H]
// result true (1)

// query Determine whether this variant has protein stability index no lower than 2: SARQGELQKVLLMLVDGIDPNFKK [M24K]
// result true (1)

// query Determine whether this variant has protein stability index no lower than 2: SARQGELQKVLLMLVDNIDPNFKM [G17N]
// result true (1)

// query Determine whether this variant has protein stability index no lower than 2: IARQGELQKVLLMLVDGIDPNFKM [S1I]
// result false (0)

// query Determine whether this variant has protein stability index no lower than 2: SARQGELQKVLLNLVDGIDPNFKM [M13N]
// result true (1)

// query Determine whether this variant has protein stability index no lower than 2: SARQGELQKVLLMLVDGIDPNFVM [K23V]
// result true (1)

// query Determine whether this variant has protein stability index no lower than 2: SARQGELQKVLLMLVDGIWPNFKM [D19W]
// result true (1)

// query Determine whether this variant has protein stability index no lower than 2: SARQGELQKVDLMLVDGIDPNFKM [L11D]
// result true (1)

// query Determine whether this variant has protein stability index no lower than 2: SARQGEIQKVLLMLVDGIDPNFKM [L7I]
// result true (1)

// query Determine whether this variant has protein stability index no lower than 2: SARQGELQKVLLMLVDGLDPNFKM [I18L]
// result true (1)

// query Determine whether this variant has protein stability index no lower than 2: SARQGELQKVLRMLVDGIDPNFKM [L12R]
// result true (1)

// query Determine whether this variant has protein stability index no lower than 2: SARQGECQKVLLMLVDGIDPNFKM [L7C]
// result false (0)

// query Determine whether this variant has protein stability index no lower than 2: SARIGELQKVLLMLVDGIDPNFKM [Q4I]
// result true (1)

// query Determine whether this variant has protein stability index no lower than 2: SARQGELQKVLLMLVDGIDPRFKM [N21R]
// result false (0)

// query Determine whether this variant has protein stability index no lower than 2: SARQGNLQKVLLMLVDGIDPNFKM [E6N]
// result true (1)

// query Determine whether this variant has protein stability index no lower than 2: SARDGELQKVLLMLVDGIDPNFKM [Q4D]
// result false (0)

// query Determine whether this variant has protein stability index no lower than 2: SARQGELQKALLMLVDGIDPNFKM [V10A]
// result true (1)

// query Determine whether this variant has protein stability index no lower than 2: SARQGELQKVLLMLVDGTDPNFKM [I18T]
// result true (1)

// query Determine whether this variant has protein stability index no lower than 2: SARQGELQKVLLMLVEGIDPNFKM [D16E]
// result false (0)

// query Determine whether this variant has protein stability index no lower than 2: SKRQGELQKVLLMLVDGIDPNFKM [A2K]
// result false (0)

// query Determine whether this variant has protein stability index no lower than 2: SARQGELQKVHLMLVDGIDPNFKM [L11H]
// result true (1)

// query Determine whether this variant has protein stability index no lower than 2: SARQGELQKVLLMLVDGIDPYFKM [N21Y]
// result true (1)

// query Determine whether this variant has protein stability index no lower than 2: SARQGELQKVLLMLVDGIDPNMKM [F22M]
// result false (0)

// query Determine whether this variant has protein stability index no lower than 2: SARQGELQKVLLMHVDGIDPNFKM [L14H]
// result true (1)

// query Determine whether this variant has protein stability index no lower than 2: SARQGELQKVLDMLVDGIDPNFKM [L12D]
// result true (1)

// query Determine whether this variant has protein stability index no lower than 2: SARQGELQKVLLMLVDGINPNFKM [D19N]
// result false (0)

Origin of measurements: the supplement of paper PMC10567573
